- Assay System: tyrosinase (Agaricus bisporus, UniProt C7FF04)
- Construct: purchased Sigma-Aldrich Co. LLC, St. Louis, MO, USA
- Sequence (C7FF04 1-392 limits assumed): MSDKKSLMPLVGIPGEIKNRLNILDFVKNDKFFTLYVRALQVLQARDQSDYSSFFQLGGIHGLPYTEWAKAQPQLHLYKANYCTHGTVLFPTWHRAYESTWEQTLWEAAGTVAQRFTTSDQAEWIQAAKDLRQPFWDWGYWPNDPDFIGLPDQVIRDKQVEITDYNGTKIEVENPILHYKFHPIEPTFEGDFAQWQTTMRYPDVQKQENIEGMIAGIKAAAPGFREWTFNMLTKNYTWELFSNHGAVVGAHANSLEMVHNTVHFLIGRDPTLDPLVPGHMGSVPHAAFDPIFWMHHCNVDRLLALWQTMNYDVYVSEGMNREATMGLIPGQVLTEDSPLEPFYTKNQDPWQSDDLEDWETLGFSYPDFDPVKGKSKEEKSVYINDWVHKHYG
- Experiment: Tyrosinase enzyme kinetics in the absence of the substrate (subversive substrate properties)
- Format: biochemical, mushroom
- Study Conditions: compound as substrate, absence of L-dopa; Table 3
Value Kind: Vmax (substrate properties)

Provide measured Vmax (substrate properties) on tyrosinase (Agaricus bisporus, UniProt C7FF04) for O=C(CCc1ccc(O)c(O)c1)c1c(O)cc(O)c(C2OC(CO)C(O)C(O)C2O)c1O (stereo not shown) [Aspalathin (1), aspalathin] please.
68.7 (± 3.5) mOD/min

Provide measured Vmax (substrate properties) on tyrosinase (Agaricus bisporus, UniProt C7FF04) for O=C(O)/C=C/c1ccc(O)c(O)c1 [Caffeic acid (2), caffeic acid] please.
120.9 (± 15.5) mOD/min

Provide measured Vmax (substrate properties) on tyrosinase (Agaricus bisporus, UniProt C7FF04) for Oc1cc(O)c2c(c1)O[C@H](c1ccc(O)c(O)c1)[C@@H](O)C2 [Catechin (3), (+)-catechin] please.
382.4 (± 7.0) mOD/min

Provide measured Vmax (substrate properties) on tyrosinase (Agaricus bisporus, UniProt C7FF04) for N[C@@H](Cc1ccc(O)c(O)c1)C(=O)O [L-dopa, reference compound] please.
22.8 (± 1.1) mOD/min

----------
- Assay System: mushroom tyrosinase (Agaricus bisporus)
- Construct: purchased Sigma-Aldrich Co. LLC, St. Louis, MO, USA
- Experiment: Tyrosinase enzyme kinetics: change in L-dopa kinetics, type of inhibition
- Assay type: biochemical
- Study Conditions: L-dopa with inhibitor
Value Kind: VMAX, Michaelis-Menten plot data of the inhibitors (Figure S 3) (µmol/min)
Just the number please, in µmol/min, no unit attached.

Provide measured VMAX, Michaelis-Menten plot data of the inhibitors (Figure S 3) on mushroom tyrosinase (Agaricus bisporus) for O=C(O)c1ccc(O)cc1 [4-Hydroxybenzoic acid (6), 4-hydroxy benzoic acid] please.
35.00

Provide measured VMAX, Michaelis-Menten plot data of the inhibitors (Figure S 3) on mushroom tyrosinase (Agaricus bisporus) for CCCOC(=O)c1cc(O)c(O)c(O)c1 [n-Propyl gallate (10), n-propyl gallate] please.
20.56

Provide measured VMAX, Michaelis-Menten plot data of the inhibitors (Figure S 3) on mushroom tyrosinase (Agaricus bisporus) for O=C(O)/C=C/c1ccc(O)cc1 [p-Coumaric acid (9), p-coumaric acid] please.
17.71

Provide measured VMAX, Michaelis-Menten plot data of the inhibitors (Figure S 3) on mushroom tyrosinase (Agaricus bisporus) for O=C(O)/C=C/c1ccccc1 [Cinnamic acid (4), cinnamic acid] please.
16.82

Provide measured VMAX, Michaelis-Menten plot data of the inhibitors (Figure S 3) on mushroom tyrosinase (Agaricus bisporus) for O=C(/C=C/c1ccc(O)c(O)c1)O[C@H](Cc1ccc(O)c(O)c1)C(=O)O [Rosmarinic acid (12), rosmarinic acid] please.
19.72

----------
- Assay System: mushroom tyrosinase (Agaricus bisporus, UniProt C7FF04)
- Construct: purchased Sigma-Aldrich Co. LLC, St. Louis, MO, USA
- Sequence (C7FF04 1-392 limits assumed): as above
- Experiment: Tyrosinase enzyme kinetics: change in L-dopa kinetics, type of inhibition
- Type: biochemical
- Study Conditions: maximum enzyme velocity
Assign true (1) whenever Change in L-dopa kinetics, Vmax does not fall below 40 µM/min; assign false (0) whenever it does.

I'd appreciate it if you could say whether O=C(O)/C=C/c1ccc(O)cc1 has Change in L-dopa kinetics, Vmax at least equal to 40 µM/min.
false (0)

I'd appreciate it if you could say whether N[C@@H](Cc1ccc(O)c(O)c1)C(=O)O [L-dopa, reference compound] has Change in L-dopa kinetics, Vmax at least equal to 40 µM/min.
false (0)

I'd appreciate it if you could say whether O=C(O)c1ccc(O)cc1 [4-Hydroxybenzoic acid (6), 4-hydroxy benzoic acid] has Change in L-dopa kinetics, Vmax at least equal to 40 µM/min.
false (0)

I'd appreciate it if you could say whether O=C(O)/C=C/c1ccccc1 has Change in L-dopa kinetics, Vmax at least equal to 40 µM/min.
false (0)

I'd appreciate it if you could say whether O=C(CCc1ccc(O)c(O)c1)c1c(O)cc(O)c(C2OC(CO)C(O)C(O)C2O)c1O (stereo not drawn) has Change in L-dopa kinetics, Vmax at least equal to 40 µM/min.
true (1)

I'd appreciate it if you could say whether Oc1cc(O)c2c(c1)O[C@H](c1ccc(O)c(O)c1)[C@@H](O)C2 [Catechin (3), (+)-catechin] has Change in L-dopa kinetics, Vmax at least equal to 40 µM/min.
true (1)
